// data source = ChEMBL document CHEMBL4725338

Record form. Attribute: logD. Fill in for each entry.
# METHOD_DESCRIPTION: Lipophilicity, log D of compound
# Type: physicochemical
# SETUP_CONDITIONS: octanol/water
Answers are plain numbers.

Completed entries (count: 2):
CNc1cc(C)nc(Nc2ccc(OC)c(OCCCN3CCCC3)c2)n1
0.8
CNc1cc(C)nc(Nc2ccc(OC)c(C3=CCNCCC3)c2)n1
0.5

Now let's try a different one.
Return reported logD; argument: CNc1cc(C)nc(Nc2ccc(OC)c(C3=CCN(C)CCC3)c2)n1
1.3

###

# TESTED_SYSTEM: CYP2D6 (Homo sapiens)
# Sequence (P10635 whole entry): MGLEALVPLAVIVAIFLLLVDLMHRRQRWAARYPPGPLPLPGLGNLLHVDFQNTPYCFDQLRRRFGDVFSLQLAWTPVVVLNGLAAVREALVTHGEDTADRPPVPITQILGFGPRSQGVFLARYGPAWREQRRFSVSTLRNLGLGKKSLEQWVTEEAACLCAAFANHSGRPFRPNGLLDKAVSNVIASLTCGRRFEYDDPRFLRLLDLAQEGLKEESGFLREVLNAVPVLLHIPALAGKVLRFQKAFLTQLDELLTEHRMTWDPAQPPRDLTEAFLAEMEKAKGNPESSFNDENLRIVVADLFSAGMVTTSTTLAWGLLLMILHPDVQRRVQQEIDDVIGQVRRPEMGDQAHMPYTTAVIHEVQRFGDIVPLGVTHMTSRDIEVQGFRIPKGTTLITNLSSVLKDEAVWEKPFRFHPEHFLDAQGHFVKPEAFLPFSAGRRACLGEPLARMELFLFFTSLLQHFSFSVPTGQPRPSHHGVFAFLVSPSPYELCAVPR
# METHOD_DESCRIPTION: Inhibition of CYP2D6 (unknown origin) at 10 uM relative to control
# Assay type: ADME
Record form. Attribute: inhibition at 10 µM. Fill in for each entry.
Answers are plain numbers, in %.

CNc1cc(C)nc(Nc2ccc(OC)c(OCCCN3CCCC3)c2)n1
8

Now let's try a different one.
Request body: readout inhibition at 10 µM, system CYP2D6 (Homo sapiens), query CNc1cc(C)nc(Nc2ccc(OC)c(C3=CCNCCC3)c2)n1 . Return the value.
3
